Recorded values, source patent US20240208992A1.

EC50: recorded values
Target: human F508del-CFTR (Homo sapiens, UniProt P13569, DEL508-508)
Sequence (P13569 with tags, fused parts or gaps DEL508-508): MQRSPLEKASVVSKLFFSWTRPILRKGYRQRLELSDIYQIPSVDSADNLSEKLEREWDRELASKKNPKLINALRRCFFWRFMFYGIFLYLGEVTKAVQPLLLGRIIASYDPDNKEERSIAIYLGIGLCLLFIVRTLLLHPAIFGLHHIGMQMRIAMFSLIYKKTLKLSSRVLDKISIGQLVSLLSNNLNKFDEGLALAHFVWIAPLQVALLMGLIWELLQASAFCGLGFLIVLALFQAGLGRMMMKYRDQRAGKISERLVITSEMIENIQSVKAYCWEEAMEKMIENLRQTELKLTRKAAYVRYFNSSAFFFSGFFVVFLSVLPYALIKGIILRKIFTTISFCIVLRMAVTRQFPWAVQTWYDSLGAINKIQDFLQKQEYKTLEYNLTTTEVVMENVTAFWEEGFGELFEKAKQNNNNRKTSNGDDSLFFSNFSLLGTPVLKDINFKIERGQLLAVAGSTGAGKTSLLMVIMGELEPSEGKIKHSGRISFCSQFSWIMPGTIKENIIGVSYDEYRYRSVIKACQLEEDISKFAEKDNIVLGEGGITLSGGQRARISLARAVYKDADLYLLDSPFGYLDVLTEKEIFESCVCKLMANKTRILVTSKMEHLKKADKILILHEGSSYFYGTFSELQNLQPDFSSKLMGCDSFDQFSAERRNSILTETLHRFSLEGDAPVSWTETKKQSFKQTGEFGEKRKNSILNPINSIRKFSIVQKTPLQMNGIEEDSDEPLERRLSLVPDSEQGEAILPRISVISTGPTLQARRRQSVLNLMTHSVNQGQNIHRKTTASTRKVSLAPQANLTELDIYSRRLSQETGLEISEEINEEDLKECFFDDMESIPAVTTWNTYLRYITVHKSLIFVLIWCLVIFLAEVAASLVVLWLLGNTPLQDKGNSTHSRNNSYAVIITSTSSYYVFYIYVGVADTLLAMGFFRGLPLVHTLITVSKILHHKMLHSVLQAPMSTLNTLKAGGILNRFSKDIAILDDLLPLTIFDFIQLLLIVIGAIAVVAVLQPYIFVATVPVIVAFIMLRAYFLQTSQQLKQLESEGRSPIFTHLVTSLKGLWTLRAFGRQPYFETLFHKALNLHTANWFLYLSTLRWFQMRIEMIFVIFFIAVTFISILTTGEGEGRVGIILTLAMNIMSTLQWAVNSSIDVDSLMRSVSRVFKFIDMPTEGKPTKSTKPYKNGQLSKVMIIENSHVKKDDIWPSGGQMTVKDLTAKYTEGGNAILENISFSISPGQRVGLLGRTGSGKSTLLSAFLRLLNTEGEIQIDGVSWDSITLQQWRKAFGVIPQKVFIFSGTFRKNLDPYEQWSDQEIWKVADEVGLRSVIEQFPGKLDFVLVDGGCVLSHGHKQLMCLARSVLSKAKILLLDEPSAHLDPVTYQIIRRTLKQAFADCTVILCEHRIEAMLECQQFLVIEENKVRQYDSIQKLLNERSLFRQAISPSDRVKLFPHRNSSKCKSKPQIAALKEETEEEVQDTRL
Assay: F508del-CFTR cell surface expression (corrector activity), DiscoveRx ß-galactosidase complementation chemiluminescence assay in recombinant U2OS cell line
Settings: EC50, F508del-CFTR cell surface expression, U2OS cell line, 16h compound incubation; geomean values
Entry rule: numbers only, all in nM.

Example entries and their recorded answers appear below.
Which EC50 is listed for "COc1cccc(CCNC(=O)[C@@H]2CC(=O)N(C)[C@@H](CC(C)C)C(=O)N(CCC3CCCCC3)CC(=O)N[C@H](Cc3ccccc3)COc3cnc4ccccc4c3C(=O)N2)c1" ?
115

Which EC50 is reported for this compound? "COc1cccc(CCNC(=O)[C@@H]2CC(=O)N(C)[C@@H](CC(C)C)C(=O)N(C)CC(=O)N[C@H](Cc3ccccc3)COc3cc4ccccc4cc3C(=O)N2)c1"
375

Look up EC50 for this compound: "COc1cccc2c1C(=O)N[C@H](C(=O)NCCc1ccc3c(c1)OCO3)CC(=O)N(C)[C@@H](CC1CCCC1)C(=O)N(C[C@@H]1CCCCO1)CC(=O)N[C@H](Cc1ccccc1)CO2"
469

Entry COc1cccc(CCNC(=O)[C@@H]2CC(=O)N(C)[C@@H](CC(C)C)C(=O)N(C)CC(=O)N[C@H](Cc3ccccc3)COc3cc4c(cc3C(=O)N2)OCO4)c1OC (mixture of isomers) has what EC50?
759

# input compound: COc1cc2c(cc1OC)C(=O)N[C@H](C(=O)NCCc1ccc3c(c1)OCO3)CC(=O)N(C)[C@@H](CC1CCCC1)C(=O)N(CCC1CCCCC1)CC(=O)N[C@H](Cc1ccccc1)CO2 (racemic) ; wanted: its EC50
82

Continuing:
Query: EC50; subject: "COc1cccc2c1C(=O)N[C@H](C(=O)NCCn1nc(C)cc1C)CC(=O)N(C)[C@@H](CC(C)C)C(=O)N(CCC1CCCCC1)CC(=O)N[C@H](Cc1ccccc1)CO2"
392

====

Biological target: human F508del-CFTR (Homo sapiens, UniProt P13569, DEL508-508)
Assay: F508del-CFTR cell surface expression (corrector activity), DiscoveRx ß-galactosidase complementation chemiluminescence assay in recombinant U2OS cell line
Conditions: U2OS, in relation to the Emax of the corrector lumacaftor (=100%); U2OS cells, 16h compound incubation; arithmetic mean
# Lookup of reported Emax keyed by entry
Please respond with the number in % and leave the unit unwritten.

Name the recorded Emax for CC(C)C[C@H]1C(=O)N(C)[C@H](Cc2nc(C(F)(F)F)no2)C(=O)N[C@H](Cc2ccccc2)COc2ccc3ncc(F)cc3c2C(=O)N[C@H](C(=O)NCCn2nnc(C3CC3)n2)CC(=O)N1C [Example 924] .
409

Can you share its Emax? I mean this compound: Cc1cc2c3c(ccc2cn1)OC[C@@H](Cc1ccccc1)NC(=O)[C@@H](Cc1nc(C(F)(F)F)no1)N(C)C(=O)[C@H](CC(C)C)N(C)C(=O)C[C@@H](C(=O)NCCn1nnc(C2CC2)n1)NC3=O [Example 890]
409

Look at this compound and give its reported Emax. Cc1cc2c3c(ccc2cn1)OC[C@@H](Cc1ccccc1)NC(=O)C1(CC(F)(F)C1)N(C)C(=O)[C@H](CC(C)C)N(C)C(=O)C[C@@H](C(=O)NCCn1nnc(C2CC2)n1)NC3=O [Example 955]
394

Please look up its Emax: Cc1cc2c3c(ccc2cn1)OC[C@@H](Cc1ccccc1)NC(=O)[C@@H](CC(F)(F)F)N(C)C(=O)[C@H](CC(C)C)N(C)C(=O)C[C@@H](C(=O)NCCc1cc(C2CC2)no1)NC3=O [Example 956]
412

I have this compound here, Cc1cc(CCNC(=O)[C@@H]2CC(=O)N(C)[C@@H](CC(C)C)C(=O)N(C)[C@H](CC(F)F)C(=O)N[C@H](Cc3ccccc3)COc3ccc4ncc(F)cc4c3C(=O)N2)on1 [Example 946] , and I need its recorded Emax.
404

====

Each entry below lists one item and its recorded pEC50 value.
Molecular target: human F508del-CFTR (Homo sapiens, UniProt P13569, DEL508-508)
Experiment: F508del-CFTR cell surface expression (corrector activity), DiscoveRx ß-galactosidase complementation chemiluminescence assay in recombinant U2OS cell line;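 note: U2OS cells co-expressing ProLink-tagged F508del-CFTR and a membrane-anchored enzyme acceptor, where more surface CFTR restores β-galactosidase activity measured by chemiluminescence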
Conditions: EC50, F508del-CFTR cell surface expression, U2OS cells, 16h compound incubation; geomean values
# pEC50: negative log10 of molar concentration; output just the value

Completed entries (count: 3):
For the record Cc1cc(CCNC(=O)[C@@H]2CC(=O)N(C)[C@@H](CC(C)C)C(=O)N(C)[C@H](C3CCCC3)C(=O)N[C@H](Cc3ccccc3)COc3cnc4ccccc4c3C(=O)N2)on1 [Example 710] , what value of pEC50 is listed for human F508del-CFTR (Homo sapiens, UniProt P13569, DEL508-508)?
6.83

Request body: readout pEC50, system human F508del-CFTR (Homo sapiens, UniProt P13569, DEL508-508), query CC(C)C[C@H]1C(=O)N2CCCC[C@H]2C(=O)N[C@H](Cc2ccccc2)COc2ccc3ncccc3c2C(=O)N[C@H](C(=O)NCCc2ccc(-n3nccn3)cc2)CC(=O)N1C [Example 473] . Return the value.
6.23

Quick check: pEC50 on human F508del-CFTR (Homo sapiens, UniProt P13569, DEL508-508), item CC(C)C[C@H]1C(=O)N2CCCC[C@H]2C(=O)N[C@H](Cc2ccccc2)COc2ccncc2C(=O)N[C@H](C(=O)NCCc2ccc3c(c2)OCC3)CC(=O)N1C [Example 592] ?
6.06

More entries:
// lookup pEC50 | system=human F508del-CFTR (Homo sapiens, UniProt P13569, DEL508-508) | key= COCCN1CCN2C(=O)[C@H](CC(C)C)N(C)C(=O)C[C@@H](C(=O)NCCc3nc4c(s3)CCC4)NC(=O)c3c(cnc4ccccc34)OC[C@@H](Cc3ccccc3)NC(=O)[C@H]2C1 [Example 415]
6.08

API: value(readout= pEC50, system= human F508del-CFTR (Homo sapiens, UniProt P13569, DEL508-508), query= Cc1cc(CCNC(=O)[C@@H]2CC(=O)N(C)[C@@H](CC(C)C)C(=O)N(C)[C@@H](CO)C(=O)N[C@H](Cc3ccccc3)COc3ccc4ccccc4c3C(=O)N2)on1 (racemic) [Example 720] )
6.06

For the record Cc1cc(CCNC(=O)[C@@H]2CC(=O)N(C)[C@@H](CC(C)C)C(=O)N(C)C3(CCC3)C(=O)N[C@H](Cc3ccccc3)COc3cnc4ccc(F)cc4c3C(=O)N2)on1 [Example 690] , what value of pEC50 is listed for human F508del-CFTR (Homo sapiens, UniProt P13569, DEL508-508)?
6.32

Lab request: please report pEC50 under test system human F508del-CFTR (Homo sapiens, UniProt P13569, DEL508-508) for Cc1cc(CCNC(=O)[C@@H]2CC(=O)N(C)[C@@H](CC(C)C)C(=O)N(C)[C@H](C(C)C)C(=O)N[C@H](Cc3ccccc3)COc3cnc4ccccc4c3C(=O)N2)on1 [Example 547]
6.55

Give the reported pEC50 for COc1noc(CCNC(=O)[C@@H]2CC(=O)N(C)[C@@H](CC(C)C)C(=O)N3CCCC[C@@H]3C(=O)N[C@H](Cc3ccccc3)COc3ccnc(OC)c3C(=O)N2)c1F [Example 767] (system: human F508del-CFTR (Homo sapiens, UniProt P13569, DEL508-508)).
6.67

Form entry - test system: human F508del-CFTR (Homo sapiens, UniProt P13569, DEL508-508); read-out: pEC50; molecule: COCCCN1C(=O)[C@H](CC(C)C)N(C)C(=O)C[C@@H](C(=O)NCCc2cccc(OC)c2)NC(=O)c2c(ccc3ccccc23)OC[C@@H](Cc2ccccc2)NC(=O)[C@H]1C [Example 431]
6.68

What is its pEC50 for human F508del-CFTR (Homo sapiens, UniProt P13569, DEL508-508)? Entry: CC(C)C[C@H]1C(=O)N(C)C2(CC2)C(=O)N[C@H](Cc2ccccc2)COc2ncc3ccccc3c2C(=O)N[C@H](C(=O)NCCc2cc(C3CC3)no2)CC(=O)N1C [Example 556]
6.49

Query the reported pEC50 for human F508del-CFTR (Homo sapiens, UniProt P13569, DEL508-508); item: CC(C)C[C@H]1C(=O)N(C)[C@H](C)C(=O)N[C@H](Cc2ccccc2)COc2ccc3ncc(F)cc3c2C(=O)N[C@H](C(=O)NCCn2ncc(C3CC3)n2)CC(=O)N1C [Example 787]
6.72

What is its pEC50 for human F508del-CFTR (Homo sapiens, UniProt P13569, DEL508-508)? Entry: COc1cccc(CCNC(=O)[C@@H]2CC(=O)N(C)[C@@H](CC(C)C)C(=O)N3CCOC[C@H]3C(=O)N[C@H](Cc3ccccc3)COc3ccc4c(C)noc4c3C(=O)N2)c1 (mixture of isomers) [Example 624]
6.04

What measured pEC50 is associated with Cc1cc2ccc3c(c2o1)C(=O)N[C@H](C(=O)NCCc1nc(C2CC2)no1)CC(=O)N(C)[C@@H](CC(C)C)C(=O)N(C)C1(CC1)C(=O)N[C@H](Cc1ccccc1)CO3 [Example 554] on human F508del-CFTR (Homo sapiens, UniProt P13569, DEL508-508)?
6.49

Identify the measured pEC50 of CCOc1cccc(CCNC(=O)[C@@H]2CC(=O)N(C)[C@@H](CC(C)C)C(=O)N3CCN(C4CC4)C[C@@H]3C(=O)N[C@H](Cc3ccccc3)COc3ccc4nc(C)oc4c3C(=O)N2)c1 [Example 418] for human F508del-CFTR (Homo sapiens, UniProt P13569, DEL508-508).
6.56
